Attribution: PubChem BioAssay

Items are presented alongside their recorded inhibition.
Target: Dual specificity protein phosphatase 6 (Homo sapiens)
Assay: DUSP6 inhibitors restoring Erk phosphorylation by chemical complementation, primary imaging in DUSP6-transfected HeLa (AID 609);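 also: phospho-Erk level distribution per well compared with pooled transfected vehicle control wells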
Conditions: HeLa MKP-3 transfected, phospho-Erk imaging KS statistic; at 10 µM; stronger effect = higher value; cells stimulated with TPA for 15 min
Reply numerically in %, unit not repeated.

Known results for molecules:
*Q* Query: inhibition; subject: COc1ccc(C2Nc3ccccc3C(=O)N2Cc2ccco2)cc1CN1C(=O)c2ccccc2C1=O (stereo unspecified)
*A* 9.07

*Q* Check `O=S(=O)(N[C@@H]1C[C@H]2CC[C@@H]1C2)c1cccs1` too.
*A* 9.37

*Q* Would you mind doing `CCOC(=O)/C=c1\s/c(=C(\C#N)C(=O)OCC)n(-c2ccccc2)c1=O` as well?
*A* 1.42

*Q* Same for `Cc1nnc2n(C3CCCCC3)c(=O)c3c4c(sc3n12)COC(C)(C)C4`
*A* -3.97

*Q* Ok, now `CC(C)CSc1nc(N2CCOCC2)c2c(c1C#N)CC(C)(C)SC2`
*A* -5.81

*Q* Try the molecule `C=CCNc1nc(N2CCOCC2)c(C#N)c2c1CN(C)CC2`
*A* 9.07

*Q* Next molecule up: `C/C(=N\O)c1c(C)c2ccccc2n1C`
*A* 11.9

*Q* Try Cc1ccc(N2CC(C(=O)Nc3ccc(N(C)C)cc3)CC2=O)cc1C (stereo unspecified) next.
*A* -1.98

*Q* Repeat with `CCN1CCc2c(C#N)c(N3CCCCC3)nc(N3CCOCC3)c2C1`
*A* -2.09

*Q* Now give it for COC(=O)c1ccc(C2/C(=C(\O)c3ccc(OC)c(C)c3)C(=O)C(=O)N2c2cc(C)on2)cc1 (stereo unspecified) too.
*A* -1.12

More entries:
*Q* Could you tell me which inhibition is on file for `COC(=O)c1cc(Br)c(=O)n(Cc2ccco2)c1` ?
*A* 1.9e-07
